Please respond with reported pIC50 for every item in the list.
System: Mitogen-activated protein kinase 1 (Mus musculus, UniProt P63085)
Sequence (P63085 whole entry): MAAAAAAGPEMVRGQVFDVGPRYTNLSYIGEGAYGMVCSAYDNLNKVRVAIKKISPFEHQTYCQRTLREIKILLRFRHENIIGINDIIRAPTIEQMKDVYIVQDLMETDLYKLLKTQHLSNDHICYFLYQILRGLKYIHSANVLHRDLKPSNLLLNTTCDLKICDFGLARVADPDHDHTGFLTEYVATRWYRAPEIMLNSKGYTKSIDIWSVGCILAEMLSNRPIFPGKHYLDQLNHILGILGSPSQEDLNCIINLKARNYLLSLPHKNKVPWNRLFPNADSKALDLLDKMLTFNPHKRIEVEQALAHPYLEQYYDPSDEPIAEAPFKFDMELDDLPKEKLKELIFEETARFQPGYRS
Measurement protocol: Active ERK2 (aERK) Assay: Activated ERK2 activity was also determined in the IMAP assay format using the procedure outlined above. 1 μl of 25× compound was added to 14 μl of kinase buffer containing 0.25 ng fully phosphorylated, active Mouse ERK2 protein. Following a 30 minute incubation, the reactions were initiated by addition of 10 μl of kinase buffer containing 1 μM ERK2 IMAP substrate peptide (0.9 μM unlabeled IPTTPITTTYFFFK-CONH2 and 100 nM IPTTPITTTYFFFK(5-carboxyfluorescein)-CONH2) and 30 μM ATP. Reactions proceeded for 30 minutes before termination by addition of 60 μl IMAP detection beads in binding buffer. Plates were read as above after 30 minute binding equilibration. Active compounds were reconfirmed in an independent assay.
Scale note: pIC50 = -log10(concentration in M).

Q: Consider the molecule Cc1cc(-c2n[nH]c3ccc(C(=O)N[C@@H]4CCC[C@](O)(Cn5cc6cccnc6n5)C4)cc23)ccn1 (relative stereo) and give its measured pIC50.
Ans: 6.39

Q: Which measured pIC50 value corresponds to Cc1cc(-c2n[nH]c3ccc(C(=O)N[C@H]4CCC[C@@](O)(Cn5cc6cc(F)ccc6n5)C4)cc23)ccn1 (relative stereo) ?
Ans: 6.11
